test system: SR leukemia; test: NCI-60 one-dose screen, 48 h (100 = growth as untreated, 0 = no growth, -100 = all killed); settings: 10 µM unless noted
This is part of a sample that, as a whole, favours compounds with a hit. Of some 83,000 tested, about 20% had one in any assay.
measured_quantity: growth (%)
Write the value in % as a bare number.

Sample answers from the record:
{"smiles_str": "COc1ccc(C/C(C)=C(\\c2ccc(Cl)cc2)c2ccc(OCCN3CCCC3)cc2)cc1", "unit_annotation": "%", "growth": -14.2}
{"smiles_str": "O=C1CCCCN1c1ccc(C2=NCCCN2)cc1", "unit_annotation": "%", "growth": 99.8}

Challenge: Lab request: please report growth under test system SR leukemia for "O=C(Oc1ccc2c(c1)sc1nc(-c3ccccc3)[nH]c(=O)c12)C(F)(F)F"
Response given: 18.9

* * *

tested on: RXF 393 renal; experiment: NCI-60 one-dose screen, 48 h (100 = growth as untreated, 0 = no growth, -100 = all killed); conditions: 10 µM unless noted
The panel holds about 83,000 compounds, 20% with a hit somewhere; the sample as a whole holds those more often.
measured_quantity: growth (%)
Write the value in % as a bare number.

Sample answers from the record:
{"molecule": "COc1cc(/C=C/c2cn[nH]c2-c2ccc(C)cc2)cc(OC)c1OC", "unit_annotation": "%", "growth": 16.1}
{"molecule": "N#Cc1ccc(O)c(C2=NCC(c3ccc(-c4ccccc4)cc3)O2)c1 (centres undefined)", "unit_annotation": "%", "growth": 42.2}
{"molecule": "N#Cc1ccccc1-c1ccc(CN2C(=O)S/C(=C\\c3ccc(Br)cc3)C2=O)cc1", "unit_annotation": "%", "growth": 104}
{"molecule": "CCOC(=O)C1=C(c2ccccc2)N=C2N(c3ccccc3)N=C(C(C)=O)N2C1c1ccc(F)cc1 (centres undefined)", "unit_annotation": "%", "growth": 75.5}
{"molecule": "c1ccc(-c2c(-c3ccccc3)[n+](Cc3ccc4ccccc4c3)cn2Cc2ccc3ccccc3c2)cc1", "unit_annotation": "%", "growth": -96.2}

Challenge: // growth lookup, key: "CC1=Nc2cnc(Nc3ccc(N4CCCCC4)cc3)nc2Nc2ccccc21"
Response given: 68

Challenge: Here is the next molecule: "CCCCNC(=O)c1ccc2c(c1)nc(-c1ccccc1)n2C1CCCCC1"
Response given: 120

Challenge: Here is the next molecule: "CSc1ccc(N2C(=N)C(=S)N(c3ccc(C)cc3)C2=O)cc1"
Response given: 113

Challenge: Here is the next molecule: "O=C(/C=C/c1cn(-c2ccccc2)nc1-c1ccccc1)CCC(=O)NO"
Response given: 102

Challenge: Here is the next molecule: "N#Cc1c(-c2ccccc2)nc2c(c(-c3ccc(Cl)cc3)nn2-c2ccccc2)c1-c1ccc([N+](=O)[O-])cc1"
Response given: 109

* * *

system: HOP-92 NSCLC; experiment: NCI-60 one-dose screen, 48 h; settings: 10 µM unless noted
This is part of a sample that, as a whole, favours compounds with a hit. Of some 83,000 tested, about 20% had one in any assay. Calls of active or inactive are those of the source. Rule for the calls: active = growth percent below 10; inactive = the rest.
Choose one outcome from this list and give only that: active, inactive

{"compound": "O=C(Cc1ccc(/C=C/C(=O)c2ncc[nH]2)cc1)Nc1cc(F)c(F)c(F)c1", "tgt": "HOP-92 NSCLC", "class_name": "inactive"}
{"compound": "Cn1c(=O)[nH]c(=O)c2nc3c(nc21)-c1ccccc1C3=O", "tgt": "HOP-92 NSCLC", "class_name": "inactive"}
{"compound": "O=C(O)CC(C(=O)O)/C(=C\\c1ccccc1)c1ccccc1 (stereo not drawn)", "tgt": "HOP-92 NSCLC", "class_name": "inactive"}
{"compound": "C=CN(C(=O)N1CCN(c2cc3c(cc2F)c(=O)c(C(=O)O)cn3C2CC2)CC1)c1nc(-c2ccccc2)cs1", "tgt": "HOP-92 NSCLC", "class_name": "inactive"}
{"compound": "COc1ccc(C2[C@@H](Cl)C(=O)N2c2cc(OC)c(OC)c(OC)c2)cc1Cl (stereo partly drawn)", "tgt": "HOP-92 NSCLC", "class_name": "inactive"}
{"compound": "COc1ccc(/C=C/C(c2cc(OC)c(OC)c(OC)c2)n2cncn2)cc1O (stereo not drawn)", "tgt": "HOP-92 NSCLC", "class_name": "inactive"}
{"compound": "COc1ccc(OC)c(Nc2nnc(-c3cc(OC)c(OC)c(OC)c3)o2)c1", "tgt": "HOP-92 NSCLC", "class_name": "inactive"}
{"compound": "CS(=O)(=O)Nc1cc(-c2ccc3ncnc(Nc4ccc5c(cnn5Cc5ccncc5)c4)c3c2)cnc1Cl", "tgt": "HOP-92 NSCLC", "class_name": "active"}
{"compound": "CN(C)Cc1ccc(NC(=O)c2cncc(C#Cc3cnc(N)c4ncccc34)c2)cc1C(F)(F)F", "tgt": "HOP-92 NSCLC", "class_name": "inactive"}
{"compound": "Nc1ncccc1O", "tgt": "HOP-92 NSCLC", "class_name": "inactive"}

Challenge: I would be grateful if you could indicate the recorded call for "Cc1ccccc1N1CCN(C(=S)c2ccccc2)CC1" .
Response given: inactive

Challenge: Here is the next compound: "O=C(NCCCCO)c1cncnc1Nc1ccc2c(ccn2Cc2cccc(F)c2)c1"
Response given: inactive

Challenge: Here is the next compound: "Cc1ccc(NC(=O)c2cc3ccccc3cc2O)c(C)c1"
Response given: inactive

Challenge: Here is the next compound: "O=C1/C(=C/c2c[nH]c(=O)[nH]c2=O)SC(=S)N1Cc1ccccc1"
Response given: inactive

Challenge: Here is the next compound: Cc1ccc(NC(=O)c2sc3nc(C)c(C(O)c4ccccc4)cc3c2N)cc1 (stereo not drawn)
Response given: inactive

Challenge: Here is the next compound: "Cn1c(C#N)ccc1-c1ccc(F)c(NC(=O)c2ccc(F)cc2)c1"
Response given: inactive
